Consider the following compounds and their measured melting point readings.

// known answers, use as guide
INSERT INTO assay_data (compound, value_reported) VALUES
  ('O=C1N=C(N2CCCCCC2)S/C1=C\c1cccc(-c2ccc(O)c(C34CC5CC(CC(C5)C3)C4)c2)c1', '321 to 324 °C'),
  ('O=C1N=C(N2CCOCC2)S/C1=C\c1cccc(-c2ccc(O)c(C34CC5CC(CC(C5)C3)C4)c2)c1', '325 to 328 °C'),
  ('O=C1N=C(NN2CCOCC2)S/C1=C\c1cccc(-c2cc(F)c(O)c(C34CC5CC(CC(C5)C3)C4)c2)c1', '304 to 309 °C'),
  ('O=C1N=C(N2CCOCC2)S/C1=C\c1cccc(-c2cc(F)c(O)c(C34CC5CC(CC(C5)C3)C4)c2)c1', '293 to 295 °C');

Attention now turns to another entry.
Supply recorded melting point for O=C1N=C(N2CCCC2)SC1Cc1cccc(-c2cc(F)c(O)c(C34CC5CC(CC(C5)C3)C4)c2)c1 (centres unmarked) here. 152 to 154 °C

====

Consider the following compounds and their measured melting point readings.

Supply recorded melting point for CONC1=NC(=O)/C(=C/c2cccc(-c3cc(F)c(O)c(C45CC6CC(CC(C6)C4)C5)c3)c2)S1 here. 286 to 288 °C

====

measured.attribute: melting point

INSERT INTO results (compound, measured_attribute, value_reported) VALUES
  ('N=C(N)NC1=NC(=O)/C(=C/c2cccc(-c3cc(F)c(O)c(C45CC6CC(CC(C6)C4)C5)c3)c2)S1', 'melting point', '288 to 290 °C');

Supply recorded melting point for O=C1N=C(NN2CCCC2)S/C1=C\c1cccc(-c2cc(F)c(O)c(C34CC5CC(CC(C5)C3)C4)c2)c1 here. 293 to 296 °C

Supply recorded melting point for COc1ccc(-c2ccc(O)c(C34CC5CC(CC(C5)C3)C4)c2)cc1/C=C1\SC(N2CCOCC2)=NC1=O here. 355 to 360 °C

Supply recorded melting point for C[C@H]1CN(C2=NC(=O)/C(=C/c3cccc(-c4cc(F)c(O)c(C56CC7CC(CC(C7)C5)C6)c4)c3)S2)C[C@H](C)O1 (relative stereo) here. 262 to 264 °C

Supply recorded melting point for O=C1N=C(N2CCCCCCC2)S/C1=C\c1cccc(-c2ccc(O)c(C34CC5CC(CC(C5)C3)C4)c2)c1 here. 284 to 286 °C

Supply recorded melting point for O=C1N=C(N2CCC2)S/C1=C\c1cccc(-c2cc(F)c(O)c(C34CC5CC(CC(C5)C3)C4)c2)c1 here. 154 to 157 °C
